Recorded values, source ChEMBL document CHEMBL3994661.

- assay.method.text: Competitive inhibition of Bacillus subtilis chorismate mutase using varying levels of chorismic acid as substrate
pKi: −log10 of the molar value.
observed.property: pKi

>>> result("O=C(O)C1CC2([N+](=O)[O-])C=CC(O)C(C2)O1 (stereo unspecified)")
6.52

----------
- assay.method.text: Inhibition of Mycobacterium tuberculosis chorismate mutase assessed as reduction in conversion of chorismate to prephenate using chorismate as substrate after 1 to 5 mins
observed.property: IC50 (nM)

>>> result("Cc1ccc(C(C)C)cc1O [CARVACROL]")
1060

----------
- assay.method.text: Inhibition of Mycobacterium tuberculosis H37Rv chorismate mutase assessed as reduction in conversion of chorismate to prephenate using chorismic acid as substrate by spectrophotometric method
observed.property: IC50

>>> result("CCOC(=O)C1=C(C)NC(=O)N[C@H]1c1ccccc1C#CCCO")
"14.8 µM"
